Measured values drawn from patent US20080280890A1 for this set.

Field: Mean OD (×10^−3), cancer cell viability. Provide a value for each of the compounds that follow.
- System: Human neuroblastoma SKN-SH cells, resistant to doxorubicin
- assayExplanation: Chemoresistance: cancer cell viability (MTT) in presence or absence of doxorubicin
- Assay type: cell-based
- conditionDescription: compound 50 ug/mL; Dox. 10^−6 M present (+); MTT

QUERY: For CC1(C)CC(O)C(Br)C(C)(C)N1O (stereo not drawn) , what is its reported Mean OD (×10^−3), cancer cell viability?
RESULT: 234.75 ×10^−3

QUERY: For COc1cc(C2=CC(C)(C)N(O)C(C)(C)C2)cc(OC)c1OC.Cl , what is its reported Mean OD (×10^−3), cancer cell viability?
RESULT: 54.50 ×10^−3

QUERY: For CC1(C)C=C(CO)CC(C)(C)N1O.Cl , what is its reported Mean OD (×10^−3), cancer cell viability?
RESULT: 325.00 ×10^−3
